Origin of the recorded values: patent US20260116991A1

molecular target: T1, monkey GPC3-His protein (monkey); test: ELISA, monkey GPC3-His coated; antibody 34.72 nM
T1 construct: Bought protein; also called monkey GPC3 protein
Recorded OD450 nm for the following binders
readout-kind: OD450 nm

* hAb007LH1L1d (antibody, human IgG1, V domains shown, Humanized F3.81.19, H1+L1d) VH: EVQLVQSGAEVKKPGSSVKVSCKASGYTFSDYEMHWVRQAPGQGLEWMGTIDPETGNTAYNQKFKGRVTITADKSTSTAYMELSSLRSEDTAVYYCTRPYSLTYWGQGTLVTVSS VL: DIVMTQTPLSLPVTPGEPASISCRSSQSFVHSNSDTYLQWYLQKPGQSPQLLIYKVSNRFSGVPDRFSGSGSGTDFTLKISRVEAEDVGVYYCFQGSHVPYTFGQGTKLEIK | 1.25
* hAb007LH1L1c (antibody, human IgG1, V domains shown, Humanized F3.81.19, H1+L1c) VH: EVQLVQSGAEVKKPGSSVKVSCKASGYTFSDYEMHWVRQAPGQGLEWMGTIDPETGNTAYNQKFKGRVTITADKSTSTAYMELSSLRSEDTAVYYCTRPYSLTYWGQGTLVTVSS VL: DIVMTQTPLSLPVTPGEPASISCRSSQSFVHSNADTYLQWYLQKPGQSPQLLIYKVSNRFSGVPDRFSGSGSGTDFTLKISRVEAEDVGVYYCFQGSHVPYTFGQGTKLEIK | 1.25
* hAb006LH3L1d (antibody, human IgG1, V domains shown, Humanized F3.38.7, H3+L1d) VH: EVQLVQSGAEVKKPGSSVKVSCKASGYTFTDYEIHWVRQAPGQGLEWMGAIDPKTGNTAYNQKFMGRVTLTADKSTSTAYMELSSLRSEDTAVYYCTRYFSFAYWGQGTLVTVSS VL: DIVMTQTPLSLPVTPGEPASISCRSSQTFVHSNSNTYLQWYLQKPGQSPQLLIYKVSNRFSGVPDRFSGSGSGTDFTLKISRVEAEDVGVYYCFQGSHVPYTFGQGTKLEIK | 1.3
